Cited source for all entries: patent US8735426B2

Target: vanilloid receptor 1 (VR1/TRPV1) (Rattus norvegicus, UniProt O35433)
Construct: The vertebral column is removed from decapitated rats; from tissue; host or cells: primary cells from rat dorsal root ganglia (DRG)
Sequence (O35433 whole entry): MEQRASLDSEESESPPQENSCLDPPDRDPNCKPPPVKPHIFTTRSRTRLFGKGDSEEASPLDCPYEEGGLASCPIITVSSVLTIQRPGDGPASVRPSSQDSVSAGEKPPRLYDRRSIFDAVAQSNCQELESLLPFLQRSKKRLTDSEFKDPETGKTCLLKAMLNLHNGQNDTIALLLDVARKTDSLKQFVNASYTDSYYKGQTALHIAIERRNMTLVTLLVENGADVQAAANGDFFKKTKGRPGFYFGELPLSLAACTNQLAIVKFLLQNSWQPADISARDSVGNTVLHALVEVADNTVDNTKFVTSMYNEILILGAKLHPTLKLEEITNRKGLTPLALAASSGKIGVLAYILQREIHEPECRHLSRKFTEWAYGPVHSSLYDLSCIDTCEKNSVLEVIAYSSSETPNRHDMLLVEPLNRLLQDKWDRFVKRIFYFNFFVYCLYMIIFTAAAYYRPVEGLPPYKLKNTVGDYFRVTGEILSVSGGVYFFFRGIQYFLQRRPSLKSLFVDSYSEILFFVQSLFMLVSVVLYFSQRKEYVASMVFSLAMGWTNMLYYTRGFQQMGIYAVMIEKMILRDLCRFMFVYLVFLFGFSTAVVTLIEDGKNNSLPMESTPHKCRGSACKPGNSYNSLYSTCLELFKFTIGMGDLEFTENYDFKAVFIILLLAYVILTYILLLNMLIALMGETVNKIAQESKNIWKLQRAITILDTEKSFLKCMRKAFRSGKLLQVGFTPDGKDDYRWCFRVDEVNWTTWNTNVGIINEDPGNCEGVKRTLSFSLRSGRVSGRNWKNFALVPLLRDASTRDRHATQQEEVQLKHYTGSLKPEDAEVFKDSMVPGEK
Assay: Functional FLIPR Ca2+ influx assay on vanilloid receptor 1, capsaicin stimulus (Pharmacological Method I)
Type: cell-based
Details: @ 1 μM, capsaicin, read-out: inhibition (in percent), Rat Capsaicin
Observed property: inhibition at 1 µM (%)
Give your result in % as a bare value.

Worked cases, inhibition at 1 µM given:
1) CS(=O)(=O)Nc1ccc(C2(C(=O)NCc3ccc(C(F)(F)F)nc3SC3CCCCC3)CCCCC2)cc1F : 15
2) CC1CCN(c2nc(C(F)(F)F)ccc2CNC(=O)C2(c3ccc(NS(C)(=O)=O)c(F)c3)CCCC2)CC1 : 27
3) CCC(C)(C(=O)NCc1ccc(C(F)(F)F)nc1SC1CCCCC1)c1ccc(NS(C)(=O)=O)c(F)c1 (stereo not shown) : 26

Value of measured inhibition at 1 µM for the entry `CC1CCN(c2nc(C(F)(F)F)ccc2CNC(=O)C2(c3ccc(NS(C)(=O)=O)c(F)c3)CCCCC2)CC1` : 7
